Data provenance is PubChem BioAssay AID2685.

# assayDetails: qHTS Assay for Lipid Storage Modulators in Drosophila S3 Cells;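 note: cells counted by Cell Tracker Red CMTPX staining in the red channel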
# measurementParameters: BODIPY lipid droplet fluorescence, 18-24 h, cells fed with added oleic acid; measured here: cell count max response
The whole screen tested about 320,000 compounds, of which about 2,100 (0.66%) were called active. Inconclusive results (about 53%) are left out. Shown is part of a subset that was picked to be rich in actives.
Mark criterion not met for cell number change values under 10%, and criterion met for everything at or above.

Use the examples below as a reference point.
smilesData	answerLabel
CCN(CC)C(=O)c1ccc(NC(=O)c2ccc(-c3nn(C)c(=O)c4ccccc34)cc2)cc1	criterion not met
Cc1cc2oc(=O)cc(-c3cc4ccccc4o3)c2cc1OC(=O)N(C)C	criterion met

Q. # check: cell number change of `CC1=C(C(=O)Nc2ccccc2)S(=O)(=O)CCO1` is greater than or equal to 10%
A. criterion not met

Q. # check: cell number change of `CN(C)CCN=Cc1c(O)n(C2CCCCCC2)c(=O)[nH]c1=O` is greater than or equal to 10%
A. criterion not met

Q. # check: cell number change of `CCN(CC)CCN=Cc1c(O)n(C2CCCCCC2)c(=O)[nH]c1=O` is greater than or equal to 10%
A. criterion not met

Q. # check: cell number change of `Cc1ccc(N2C(=O)/C(=C/c3ccc(CN(CCC#N)S(C)(=O)=O)o3)C(=O)NC2=S)cc1` is greater than or equal to 10%
A. criterion not met

Q. # check: cell number change of `CCN(CC)CCN=Cc1c(O)n(CCC2=CCCCC2)c(=O)[nH]c1=O` is greater than or equal to 10%
A. criterion met

Q. # check: cell number change of `Cc1cc(N2CCN(C)CC2)nc2ccccc12` is greater than or equal to 10%
A. criterion met

Q. # check: cell number change of `CS(=O)(=O)NCc1nnc2n1-c1ccc(Cl)cc1C(c1ccccc1)=NC2` is greater than or equal to 10%
A. criterion met
